assay: Early RBV plasma exposure (AUC0-4h) after a 600 mg first dose of RBV; format: in vivo, human (patients with chronic hepatitis C); settings: human, plasma, oral, 600 mg, HCV monoinfected, relapsers; read-out: median AUC0-4h
READOUT: AUC(0-t) (ng·h/mL)
The answer is to be given in ng·h/mL; state only the numeric part.

# return recorded AUC(0-t) for entry NC(=O)c1ncn([C@@H]2O[C@H](CO)[C@@H](O)[C@H]2O)n1
2020

----------
assay: Early RBV plasma exposure (AUC0-4h) after a 600 mg first dose of RBV; assay type: in vivo, human (patients with chronic hepatitis C); conditions: human, plasma, oral, 600 mg, HCV monoinfected patients (n = 63); plasma, single 600 mg RBV dose; median (range); read-out: AUC0-4h
READOUT: AUC(0-t)
Entry format: amount then unit.

For the compound NC(=O)c1ncn([C@@H]2O[C@H](CO)[C@@H](O)[C@H]2O)n1 [RBV, ribavirin] , report AUC(0-t).
2030 ng·h/mL
